test: Compound was evaluated for the antibacterial activity against methicillin-resistant coagulase-negative staphylococci (MRCNS)as fold improvement in activity with respect to imipenem.; format: functional, Staphylococcus […]
Provide the recorded Activity for the entries that follow.
Answer as a number with no unit attached.

Req: Find the recorded Activity belonging to C[C@H](O)[C@H]1C(=O)N2C(C(=O)[O-])=C(c3cccc(-c4ccc(C[n+]5ccccc5N)cc4)c3)C[C@H]12 and report it.
Resp: 232

Req: Likewise for C[C@@H](O)[C@H]1C(=O)N2C(C(=O)[O-])=C(c3cc(C[n+]4cccc(N)c4)c4ccccc4c3)C[C@H]12 ?
Resp: 12

Req: Try the molecule C[C@@H](O)[C@H]1C(=O)N2C(C(=O)[O-])=C(c3ccc4cccc(C[n+]5ccc(N)cc5)c4c3)C[C@H]12
Resp: 40

Req: Repeat for the following molecule: C[C@H](O)[C@H]1C(=O)N2C(C(=O)[O-])=C(c3cc(C[n+]4ccccc4N)c4ccccc4c3)C[C@H]12
Resp: 1.9

Req: Again, but for C[C@@H](O)[C@H]1C(=O)N2C(C(=O)[O-])=C(c3ccc4c(C[n+]5ccc(N)cc5)cccc4c3)C[C@H]12
Resp: 77

Req: One more molecule: C[C@@H](O)[C@H]1C(=O)N2C(C(=O)[O-])=C(c3ccc4cc(C[n+]5ccc(N)cc5)ccc4c3)C[C@H]12
Resp: 77

Req: How about C[C@@H](O)[C@H]1C(=O)N2C(C(=O)[O-])=C(c3ccc4cc(C[n+]5ccccc5N)ccc4c3)C[C@H]12 ?
Resp: 323

====

system: Klebsiella; assay: Compound was evaluated for the antibacterial activity against Klebsiella.8 as fold improvement in activity with respect to imipenem.; assay type: functional
So I've got a bunch of molecules here, and I need their Activity values.
Reply: number alone, nothing else.

Req: Field request: Activity | item: C[C@H](O)[C@H]1C(=O)N2C(C(=O)[O-])=C(c3cc(C[n+]4ccccc4N)c4ccccc4c3)C[C@H]12
Resp: 0.02

Req: Further, for C[C@H](O)[C@H]1C(=O)N2C(C(=O)[O-])=C(c3cc(C[n+]4ccc(N)cc4)c4ccccc4c3)C[C@H]12 ?
Resp: 0.02

Req: Moving on to the next molecule: C[C@@H](O)[C@H]1C(=O)N2C(C(=O)[O-])=C(c3ccc4cc(C[n+]5cccc(N)c5)ccc4c3)C[C@H]12
Resp: 0.43

Req: Do the same for C[C@H](O)[C@H]1C(=O)N2C(C(=O)[O-])=C(c3cccc(-c4ccc(C[n+]5ccccc5N)cc4)c3)C[C@H]12 please
Resp: 0.04

====

Would you kindly list MIC90 for each of these compounds?
tested on: Staphylococcus aureus; assay: Compound was evaluated for the anti-MRSA activity as MIC90.; format: functional
Could you give me the number in mg/L? Just the number is fine.

Req: API: value(readout=MIC90, system=Staphylococcus aureus) for record C[C@@H](O)[C@H]1C(=O)N2C(C(=O)[O-])=C(c3ccc4cc(C[n+]5ccccc5N)ccc4c3)C[C@H]12
Resp: 4

Req: Item: CN[C@H](CC(C)C)C(=O)N[C@H]1C(=O)N[C@@H](CC(N)=O)C(=O)N[C@H]2C(=O)N[C@H]3C(=O)N[C@H](C(=O)N[C@H](C(=O)O)c4cc(O)cc(O)c4-c4cc3ccc4O)[C@H](O)c3ccc(c(Cl)c3)Oc3cc2cc(c3O[C@@H]2O[C@H](CO)[C@@H](O)[C@H](O)[C@H]2O[C@H]2C[C@](C)(N)[C@H](O)[C@H](C)O2)Oc2ccc(cc2Cl)[C@H]1O [VANCOMYCIN]
Resp: 2

Req: // next record C[C@@H](O)[C@H]1C(=O)N2C(C(=O)O)=C(SCCNC=N)C[C@H]12 [IMIPENEM ANHYDROUS]
Resp: 64

Req: Entry to check: C[C@@H](O)[C@H]1C(=O)N2C(C(=O)[O-])=C(c3ccc4cccc(C[n+]5ccc(N)cc5)c4c3)C[C@H]12
Resp: 8

Req: What do you have for C[C@H](O)[C@H]1C(=O)N2C(C(=O)[O-])=C(c3cccc(-c4ccc(C[n+]5ccccc5N)cc4)c3)C[C@H]12 ?
Resp: 2

Req: Quick one: C[C@@H](O)[C@H]1C(=O)N2C(C(=O)[O-])=C(c3ccc4cc(C[n+]5ccc(N)cc5)ccc4c3)C[C@H]12
Resp: 8

====

target: UniProtKB P22412; assay: Dehydropeptidase-1 susceptibility.
Sequence (P22412 whole entry): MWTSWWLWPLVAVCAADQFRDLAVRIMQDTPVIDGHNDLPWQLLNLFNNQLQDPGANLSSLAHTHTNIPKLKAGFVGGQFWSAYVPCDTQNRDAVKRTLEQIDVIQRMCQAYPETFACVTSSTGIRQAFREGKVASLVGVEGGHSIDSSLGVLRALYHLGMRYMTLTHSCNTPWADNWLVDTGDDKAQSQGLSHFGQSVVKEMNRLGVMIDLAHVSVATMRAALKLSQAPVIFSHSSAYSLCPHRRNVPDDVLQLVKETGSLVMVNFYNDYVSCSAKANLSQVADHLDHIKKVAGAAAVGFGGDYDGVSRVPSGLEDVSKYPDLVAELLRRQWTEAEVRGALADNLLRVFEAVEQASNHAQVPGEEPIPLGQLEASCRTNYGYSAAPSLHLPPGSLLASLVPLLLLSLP
measuredMetric: Activity
Give only the figure.

Req: Observed Activity on UniProtKB P22412 for C[C@H](O)[C@H]1C(=O)N2C(C(=O)[O-])=C(c3cc(C[n+]4ccccc4N)c4ccccc4c3)C[C@H]12 , please.
Resp: 0.01

Req: C[C@@H](O)[C@H]1C(=O)N2C(C(=O)[O-])=C(c3ccc4cccc(C[n+]5ccccc5N)c4c3)C[C@H]12 ?
Resp: 0

Req: Repeat with C[C@H](O)[C@H]1C(=O)N2C(C(=O)[O-])=C(c3cccc(-c4ccc(C[n+]5ccccc5N)cc4)c3)C[C@H]12
Resp: 0.04

Req: Query C[C@@H](O)[C@H]1C(=O)N2C(C(=O)[O-])=C(c3ccc4c(C[n+]5ccc(N)cc5)cccc4c3)C[C@H]12 next
Resp: 0.03

Req: Likewise for CC(O)C1C(=O)N2C(C(=O)O)=C(c3ccc4ccccc4c3)CC12 (stereo not drawn) ?
Resp: 0.09

Req: Then this compound: C[C@@H](O)[C@H]1C(=O)N2C(C(=O)O)=C(SCCNC=N)C[C@H]12 [IMIPENEM ANHYDROUS]
Resp: 1

Req: Record: C[C@@H](O)[C@H]1C(=O)N2C(C(=O)[O-])=C(c3ccc4ccc(C[n+]5ccc(N)cc5)cc4c3)C[C@H]12
Resp: 0.07

Req: Try C[C@@H](O)[C@H]1C(=O)N2C(C(=O)[O-])=C(c3ccc4cc(C[n+]5cccc(N)c5)ccc4c3)C[C@H]12 next.
Resp: 0.15

====

system: Pseudomonas aeruginosa; experiment: Compound was evaluated for the antibacterial activity against Pseudomonas aeruginosa as fold improvement in activity with respect to imipenem.; assay type: functional
measuredMetric: Activity
Please reply with the number alone, leaving off any unit.

Req: Suppose we examine the compound C[C@@H](O)[C@H]1C(=O)N2C(C(=O)[O-])=C(c3ccc4ccc(C[n+]5ccc(N)cc5)cc4c3)C[C@H]12 ; what Activity value has been reported?
Resp: 0.01

Req: How about C[C@H](O)[C@H]1C(=O)N2C(C(=O)[O-])=C(c3cc(C[n+]4ccc(N)cc4)c4ccccc4c3)C[C@H]12 ?
Resp: 0.01

Req: What about this compound? C[C@H](O)[C@H]1C(=O)N2C(C(=O)[O-])=C(c3cc(C[n+]4ccccc4N)c4ccccc4c3)C[C@H]12
Resp: 0.01

Where do the numbers come from? From ChEMBL document CHEMBL1132139.
